Provenance of the data: the supplement of paper PMC9233669

- System: biotinyl-Ile-oxazolone
- assay notes: self-aminoacylation, catalytic enhancement (BIO) (fold over background); higher = more active; k-Seq, kA / k0A0; sequences stand for … in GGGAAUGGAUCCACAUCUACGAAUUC…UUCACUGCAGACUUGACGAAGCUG
Variants at the floor of the assay were thinned out.
Kindly state self-aminoacylation for each of the entries shown.
One number for each entry.

// solved cases for self-aminoacylation follow
{"sequence chain": "CCACACUUCUAGCAAUCGGUC [Fam1B.1 aminoacylation ribozyme variant]", "self-aminoacylation": 0.771}
{"sequence chain": "AUUCACCUAGGCCACCGGGUG [Fam2.2 aminoacylation ribozyme variant]", "self-aminoacylation": 3.83}
{"sequence chain": "AUUCGCCUAGGUAAUCGGGUG [Fam2.2 aminoacylation ribozyme variant]", "self-aminoacylation": 2.02}
{"sequence chain": "CCACACUCUAAGCAAUCGGUC [Fam1B.1 aminoacylation ribozyme variant]", "self-aminoacylation": 0.985}
{"sequence chain": "AAGUUUGGUAAUACUCGCAAG [Fam3.1 aminoacylation ribozyme variant]", "self-aminoacylation": 1.06}

Please supply self-aminoacylation for each of the following items, keeping them in order.
1. CCACACUUCAAGCAAUCAGUG [Fam1B.1 aminoacylation ribozyme variant]
2. AUUCACCUAGGUCAUUGAGUG [Fam2.2 aminoacylation ribozyme variant]
3. CCACGUCAAACAAUCGGUCUG [Fam1A.1 aminoacylation ribozyme variant]
4. AUUUACCUAGGUCAUCGUGUG [Fam2.2 aminoacylation ribozyme variant]
5. CAACACUCCAAGCAAUCGGUC [Fam1B.1 aminoacylation ribozyme variant]
6. AGGUUUGCUAAGAGUCGCAAG [Fam3.1 aminoacylation ribozyme variant]
7. AUCACCCUUGUCAUCGAGUGA [Fam2.1 aminoacylation ribozyme variant]

3
2.6
1.89
0.874
1.13
1.12
4.65

Please supply self-aminoacylation for each of the following items, keeping them in order.
1. AUUAUCCUGGUCAUCGACUGA [Fam2.1 aminoacylation ribozyme variant]
2. CUUAUUCAAACAAUCGGUCUG [Fam1A.1 aminoacylation ribozyme variant]
3. AAGUAUGCUAAUAGUCGAAAG [Fam3.1 aminoacylation ribozyme variant]
4. AUCCACCGAGGUCAUCGGGUG [Fam2.2 aminoacylation ribozyme variant]
5. AUUCACCGAGGUCAUCGCGUG [Fam2.2 aminoacylation ribozyme variant]
6. CUACUACAAACAAUCGGACUG [Fam1A.1 aminoacylation ribozyme variant]

0.875
0.702
1.48
5.2
7.64
0.852
